- studySystem: acid ceramidase (AC) (Homo sapiens, UniProt Q13510)
- Sequence (Q13510 143-395 limits assumed): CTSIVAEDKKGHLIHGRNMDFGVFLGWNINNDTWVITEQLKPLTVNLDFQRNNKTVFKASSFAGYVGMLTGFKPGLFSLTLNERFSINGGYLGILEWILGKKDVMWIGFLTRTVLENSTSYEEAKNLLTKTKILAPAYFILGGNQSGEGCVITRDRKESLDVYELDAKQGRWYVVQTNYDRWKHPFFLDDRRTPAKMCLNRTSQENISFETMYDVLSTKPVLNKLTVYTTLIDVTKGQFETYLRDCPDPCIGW
- Sequence (Q13510 22-142 limits assumed): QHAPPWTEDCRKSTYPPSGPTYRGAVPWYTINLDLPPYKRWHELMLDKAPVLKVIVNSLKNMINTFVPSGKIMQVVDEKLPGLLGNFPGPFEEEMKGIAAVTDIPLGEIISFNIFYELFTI
- experimentSummary: Fluorogenic AC activity in intact cells (substrate RBM14C12)
- Assay type: cell-based
- Set-up: expressed in transfected cells; host or cells: A375/+Dox (overexpressing AC)
- measurementParameters: AC overexpressing A375 cells (A375/+Dox), 4 h, substrate RBM14C12 40 µM
measurementKind: pIC50
# pIC50 is unitless: minus log10 of the molar concentration; print number only

GET /values?readout=pIC50&item= CCCCCCCCCCCCC/C=C/[C@H](CO)NC(=O)C(C)(C)C
5.03

# credit: patent EP3925949A1
